Data origin: PubChem BioAssay (NCI)

system: MCF7 breast; assay: NCI-60 one-dose screen, 48 h (100 = growth as untreated, 0 = no growth, -100 = all killed); conditions: 10 µM
About 83,000 compounds went through this panel and 20% of them were active in at least one assay; those are over-represented in the sample as a whole. Activity calls are given as the source filed them. The calls were made as follows: active = growth percent below 10; inactive = the rest.
Listed below: growth values for each entry.

COc1ccccc1N1C(=N)S/C(=C\c2ccc(OCc3ccccc3F)cc2)C1=O: 33% (inactive)

IN: Report growth for `O=NN(Cc1cccnc1)C(=O)NC1CCCCC1`
OUT: 92.9% (inactive)

IN: Quick one: give measured growth for O=CCCCC(O)C=O (stereo unspecified)
OUT: 98.9% (inactive)

IN: Return growth for the following molecule: `Cc1ccc(Cc2cnc(NC(=O)CN3C(=O)/C(=C\c4ccccc4)SC3=S)s2)cc1`
OUT: 95.8% (inactive)

IN: Note growth for the molecule shown: `O=C(CCN1C(=O)c2ccccc2C1=O)Nc1ccc(Cl)cc1`
OUT: 72.4% (inactive)

IN: Return growth (reported value) for this molecule: `COc1ccc(Cn2c(Br)c3c(c2Br)-c2nc(N)sc2CC3)cc1`
OUT: 17.7% (inactive)

IN: Output measured growth for this item: `O=C(Nc1ccc(Br)cc1F)c1cc(Cl)ccc1O`
OUT: 0.423% (active)

IN: Determine its reported growth: CCCCC(O)(c1ccc(Cl)cc1)C(CN1CCOCC1)c1ccc(Cl)cc1 (stereo unspecified)
OUT: 17.7% (inactive)

IN: Report growth for O=C1CCC(N2C(=O)c3cccc(NCCCCCCOc4ccc(Nc5nccc(Nc6ccccc6)n5)cc4)c3C2=O)C(=O)N1 (stereo unspecified)
OUT: 66.8% (inactive)

IN: Return value of growth for input `Cn1cc(-c2ccc3ncc(-c4ccc(CC(=O)Nc5cc(C(C)(C)C)no5)cc4)nc3c2)cn1` , no commentary.
OUT: 30.2% (inactive)

IN: Give reported growth value for `O=c1nc2sc3nc4ccccc4cc3cc-2s1`
OUT: 98.1% (inactive)

IN: Note down growth recorded for `O=C1OC(c2ccccc2)(c2ccccc2)c2ccsc21`
OUT: 104% (inactive)

IN: Input `O=c1oc2ccc(Cl)cc2c(=O)n1-c1cc(C(F)(F)F)cc(C(F)(F)F)c1` , output reported growth.
OUT: 2.18% (active)

IN: Check the records and state growth for `O=C(CCc1nnc2sc(COc3ccccc3)nn12)c1nc2ncccc2[nH]1`
OUT: 94.5% (inactive)

IN: Identify growth associated with the molecule CCN1C(=O)N(CC)C2C1NC(=S)N2/N=C/C=C/c1ccccc1OC (stereo unspecified)
OUT: 17.8% (inactive)

IN: Output growth of `O=S(=O)(c1ccc(NC(=S)NC23CC4CC(CC(C4)C2)C3)cc1)N1CCCCC1`
OUT: 94.2% (inactive)

IN: Note down growth recorded for `Nc1ccc(-n2c(=O)oc3ccc(Cl)cc3c2=O)c(Cl)c1`
OUT: 4.1% (active)

IN: # return recorded growth for entry `COC(=O)[C@@H]1CCCN1C(=O)[C@H]1CCCN1C(=O)[C@@H](Cc1c[nH]c2ccccc12)NC(=S)Nc1cc(C(F)(F)F)cc(C(F)(F)F)c1`
OUT: 25.3% (inactive)

IN: Look up and report measured growth for this entry: `O=C(Nc1ccsc1C(=O)NC1CCCCC1)c1ccc(F)cc1`
OUT: 90.6% (inactive)

IN: # return recorded growth for input `O=C1/C=C/[C@@H](O)[C@@H]2C[C@@H](O)C[C@H]2/C=C/CCCCO1`
OUT: -48% (active)

IN: Using the record for `COc1ccc(CCN2CCC(CN(C)Cc3cnn(-c4ccccc4)c3)CC2)cc1` , state its measured growth.
OUT: 12.4% (inactive)

====

test system: SK-MEL-2 melanoma; assay: NCI-60 one-dose screen, 48 h (100 = growth as untreated, 0 = no growth, -100 = all killed); details: 10 µM unless noted
This is part of a sample that, as a whole, favours compounds with a hit. Of some 83,000 tested, about 20% had one in any assay.
RESULT TYPE: growth (%)
Please respond with the number in % and leave the unit unwritten.

Some compounds with known growth results, for comparison:
CC/C(=C(\CC)c1ccc(OCC[N+](C)(C)C)cc1)c1ccc(OC)cc1: 98.8
CCOC(=O)c1c(C=O)nc2ccccc2c1/C=C/c1ccc(Cl)cc1: 105
O=C(CCc1nnc2sc(Cc3ccccc3Cl)nn12)c1nc2ncccc2[nH]1: 97.9
COc1ccc(-c2nnc(COc3ccc(C(=O)/C=C/c4ccco4)cc3)o2)cc1: 132

Proceeding to the next compound to report its growth.
IN: State its growth for this compound: `Cc1ccc(S(=O)(=O)c2c(COC(=O)c3cccc(C)c3)c(-c3ccccc3)nn2C)cc1`
OUT: 27.2

====

test system: SR leukemia; assay: NCI-60 one-dose screen, 48 h; conditions: 10 µM unless noted
About 83,000 compounds went through this panel and 20% of them were active in at least one assay; those are over-represented in the sample as a whole. Calls of active or inactive are those of the source. How the source made its calls: active means growth percent below 10; inactive means the rest.
Respond only with the outcome that fits, drawn from active, inactive

The examples below pair each entry with its known result.
COc1ccc2oc(=O)cc(Cn3cc(Cn4cnc5c4c(=O)n(C)c(=O)n5C)nn3)c2c1: inactive
COc1cc(C(=O)O/N=C(\N)Cc2cccc3ccccc23)cc(OC)c1OC: active
COC(=O)c1c2c(c(C)[n+]([O-])c1C)C(=O)C=C(NCc1ccc(F)c(F)c1)C2=O: inactive
NCCCNc1nc2ccccc2c2c(=O)c3cc(F)ccc3sc12: active
CCN(CC)CCCNc1ccnc2cc3ccccc3cc12: inactive

IN: Query: recorded result category for `NCCNc1nc2ccccc2c2c(=O)c3cc(F)cc(Cl)c3sc12` in this test
OUT: active

IN: Record request — test call for `CC/C=C\C[C@H](O)C/C=C1/C(=O)C=C[C@@H]1C/C=C\CCCC(=O)OCCS(=O)(=O)c1ccccc1`
OUT: active

IN: How did this test come out for `CCn1c(SCC(=O)Nc2cc(C(F)(F)F)ccc2Cl)nc2ccccc2c1=O` ?
OUT: active

IN: What is the recorded call for this compound in the test? `Cc1sc2ncnc(Sc3nc4ccccc4[nH]3)c2c1C`
OUT: active

IN: Hello, I am checking results. What call was entered for `COC(=O)/C(CCC=C(C)C)=C1\[C@@H](OC(C)=O)C[C@@]2(C)[C@H]1C[C@@H](O)[C@H]1[C@@]3(C)CC[C@H](NCCO)[C@@H](C)[C@@H]3CC[C@@]12C` ?
OUT: inactive

====

test system: M14 melanoma; experiment: NCI-60 one-dose screen, 48 h; conditions: 10 µM unless noted
The panel holds about 83,000 compounds, 20% with a hit somewhere; the sample as a whole holds those more often. Activity calls are given as the source filed them. The calls were made as follows: active = growth percent below 10; inactive = the rest.
Write down one outcome, taken from yes (1) for active, no (0) for inactive

Known results for molecules:
CSc1nc2c(c(=O)n1C)N=C1c3ccccc3C(=O)C1C(c1ccccc1)N2 (stereo not given): no (0)
Cc1ccc(Cc2cnc(NC(=O)CN3C(=O)/C(=C\c4ccccc4)SC3=S)s2)cc1: no (0)

IN: What call does the record list for `CN(C)CCNc1cc(-c2ccccc2)nc2ccccc12` ?
OUT: yes (1)

IN: In this assay, the call recorded for CCCCC1CCc2cccc3c(SCC(=O)N(C)c4ccc(Cl)cc4)cc[n+]1c23 (stereo not given) was what?
OUT: no (0)

IN: # fetch the recorded call for `CCOC(=O)C1=CN(C)C=C(C(=O)OCC)C1c1cc(Br)c(OCC)c(OC)c1` here
OUT: yes (1)

====

system: NCI-H460 lung; assay: NCI-60 one-dose screen, 48 h (100 = growth as untreated, 0 = no growth, -100 = all killed); conditions: 10 µM unless noted
Compounds without any hit were thinned out: in the full panel of roughly 83,000, 20% have a hit.
Lab note - cut at 80% for growth: True if strictly below, False if not.

Consider the worked cases shown below.
CN(C)/C=C1\SC(=Nc2ccc(Cl)cc2)NC1=O: False
CCOC(=O)c1sc(-c2ccc(OS(=O)(=O)c3ccc(Br)s3)c(C=O)c2)nc1C: True
CSc1nc2c(c(=O)[nH]1)N=C1c3ccccc3C(=O)C1C(c1ccccc1)N2 (stereo unspecified): True
O=CCCCC(O)C=O (stereo unspecified): False
O=NN(C(=O)NC1CCC(C(=O)O)CC1)C1CCC(C(=O)O)CC1 (stereo unspecified): False

Now examine the next entry.
IN: Please check: growth for `COc1ccc2sc3c(NCCCN)nc4ccccc4c3c(=O)c2c1` , strictly under 80% or not?
OUT: True

====

tested on: HCT-116 colon; assay: NCI-60 one-dose screen, 48 h; settings: 10 µM unless noted
Compounds without any hit were thinned out: in the full panel of roughly 83,000, 20% have a hit. Active and inactive are the calls of the source. How the source made its calls: active means growth percent below 10; inactive means the rest.
Your answer must be one of the following: active, inactive

Nc1nc(-c2ccccc2Br)nn1-c1nc2ccccc2s1: inactive

IN: Outcome? `COc1ccc(Nc2cc(C)nc(NCc3ccccc3)n2)cc1`
OUT: inactive

IN: Would you mind telling me which call this test gave O=C(c1nc2ccccc2[nH]1)C1C(c2ccc(F)cc2)C2CC3CCCCC3N2[C@@]12C(=O)Nc1ccc(Cl)cc12 (stereo partly drawn) ?
OUT: inactive

IN: Record lookup: outcome of this test for `CCOc1c(Br)cc(C2C(C(=O)OC)=CN(C)C=C2C(=O)OC)cc1OC` ?
OUT: inactive

IN: Hello, I am checking results. What call was entered for `Cc1cc(OC(=O)c2ccc([N+](=O)[O-])cc2)nc2[nH]c(=O)sc12` ?
OUT: inactive

IN: Outcome logged for `COc1cccc(/C(C#N)=C/c2nc3c(N4CCOCC4)nc(Cl)nc3n2C)c1` in this assay:
OUT: active

IN: Could you kindly confirm the outcome this assay logged for `COc1c(B(O)O)cccc1-c1nc2ccc3n[nH]c(F)c3c2c2c1CCCC2` ?
OUT: inactive

IN: Hi team, can someone confirm the assay call for `O=Cc1cc2ccccc2nc1Nc1nccs1` ?
OUT: inactive
